experiment_description: physchem
details: 25 °C, fassif, thermodynamic from solid
metric_name: solubility (µg/mL)
The answer is to be given in µg/mL; state only the numeric part.

>>> measured_result("CN(CCN(C)C(=O)N(c1nn(CC(F)(F)F)c2c(-c3ccc(C#CC(C)(C)S(C)(=O)=O)nc3[C@H](Cc3cc(F)cc(F)c3)NC(=O)Cn3nc(C(F)(F)F)c4c3C(F)(F)[C@@H]3C[C@H]43)ccc(Cl)c12)S(C)(=O)=O)C(=O)OCOP(=O)(O)O")
1950

*Q* Record request: solubility value, item "CN(CC(=O)OCOP(=O)(O)O)C(=O)N(c1nn(CC(F)(F)F)c2c(-c3ccc(C#CC(C)(C)S(C)(=O)=O)nc3[C@H](Cc3cc(F)cc(F)c3)NC(=O)Cn3nc(C(F)(F)F)c4c3C(F)(F)[C@@H]3C[C@H]43)ccc(Cl)c12)S(C)(=O)=O"
*A* 154

*Q* Record request: solubility value, item "CC(C)(C#Cc1ccc(-c2ccc(Cl)c3c(N(C(=O)OCCN(CC(=O)O)C(=O)OCOP(=O)(O)O)S(C)(=O)=O)nn(CC(F)(F)F)c23)c([C@H](Cc2cc(F)cc(F)c2)NC(=O)Cn2nc(C(F)(F)F)c3c2C(F)(F)[C@@H]2C[C@H]32)n1)S(C)(=O)=O"
*A* 2640

*Q* Record request: solubility value, item "CC(C)(C#Cc1ccc(-c2ccc(Cl)c3c(N(C(=O)OCCNC(=O)OCOP(=O)(O)O)S(C)(=O)=O)nn(CC(F)(F)F)c23)c([C@H](Cc2cc(F)cc(F)c2)NC(=O)Cn2nc(C(F)(F)F)c3c2C(F)(F)[C@@H]2C[C@H]32)n1)S(C)(=O)=O"
*A* 950

###

details: 1×PBS buffer (pH 7.4), 1.0% DMSO, 24-hour incubation at ambient temperature, maximum theoretical 100 μM; second value of the cell
metric_name: pH 7 solubility (μM)
The answer is to be given in μM; state only the numeric part.

Recorded pH 7 solubility, per entry:
>>> measured_result("CC(C)(C#Cc1ccc(-c2ccc(Cl)c3c(N(C(=O)OCCOCCOP(=O)(O)O)S(C)(=O)=O)nn(CC(F)(F)F)c23)c([C@H](Cc2cc(F)cc(F)c2)NC(=O)Cn2nc(C(F)(F)F)c3c2C(F)(F)[C@@H]2C[C@H]32)n1)S(C)(=O)=O")
100
>>> measured_result("CC(C)(C#Cc1ccc(-c2ccc(Cl)c3c(N(C(=O)O[C@H]4C[C@H](NC(=N)N)C4)S(C)(=O)=O)nn(CC(F)(F)F)c23)c([C@H](Cc2cc(F)cc(F)c2)NC(=O)Cn2nc(C(F)(F)F)c3c2C(F)(F)[C@@H]2C[C@H]32)n1)S(C)(=O)=O")
1
>>> measured_result("CC(NC(=O)N(c1nn(CC(F)(F)F)c2c(-c3ccc(C#CC(C)(C)S(C)(=O)=O)nc3[C@H](Cc3cc(F)cc(F)c3)NC(=O)Cn3nc(C(F)(F)F)c4c3C(F)(F)[C@@H]3C[C@H]43)ccc(Cl)c12)S(C)(=O)=O)(C(=O)O)C(=O)O")
100
>>> measured_result("CC(C)(C#Cc1ccc(-c2ccc(Cl)c3c(N(C(=O)OCC(=O)O)S(C)(=O)=O)nn(CC(F)(F)F)c23)c([C@H](Cc2cc(F)cc(F)c2)NC(=O)Cn2nc(C(F)(F)F)c3c2C(F)(F)[C@@H]2C[C@H]32)n1)S(C)(=O)=O")
10
>>> measured_result("CC(C)(C#Cc1ccc(-c2ccc(Cl)c3c(N(C(=O)N[C@](C)(CO)CC(=O)O)S(C)(=O)=O)nn(CC(F)(F)F)c23)c([C@H](Cc2cc(F)cc(F)c2)NC(=O)Cn2nc(C(F)(F)F)c3c2C(F)(F)[C@@H]2C[C@H]32)n1)S(C)(=O)=O")
10
>>> measured_result("CC(C)(C#Cc1ccc(-c2ccc(Cl)c3c(N(C(=O)OCCNC(=O)OCOP(=O)(O)O)S(C)(=O)=O)nn(CC(F)(F)F)c23)c([C@H](Cc2cc(F)cc(F)c2)NC(=O)Cn2nc(C(F)(F)F)c3c2C(F)(F)[C@@H]2C[C@H]32)n1)S(C)(=O)=O")
85

*Q* Record request: pH 7 solubility value, item "CC(C)[C@H](N)C(=O)OCN(c1nn(CC(F)(F)F)c2c(-c3ccc(C#CC(C)(C)S(C)(=O)=O)nc3[C@H](Cc3cc(F)cc(F)c3)NC(=O)Cn3nc(C(F)(F)F)c4c3C(F)(F)[C@@H]3C[C@H]43)ccc(Cl)c12)S(C)(=O)=O"
*A* 1

*Q* Record request: pH 7 solubility value, item "CC(C)(C#Cc1ccc(-c2ccc(Cl)c3c(N(C(=O)OCCOCCOCCO)S(C)(=O)=O)nn(CC(F)(F)F)c23)c([C@H](Cc2cc(F)cc(F)c2)NC(=O)Cn2nc(C(F)(F)F)c3c2C(F)(F)[C@@H]2C[C@H]32)n1)S(C)(=O)=O"
*A* 1

*Q* Record request: pH 7 solubility value, item "CC(C)(C#Cc1ccc(-c2ccc(Cl)c3c(N(C(=O)OCCN(CC(=O)O)C(=O)OCOP(=O)(O)O)S(C)(=O)=O)nn(CC(F)(F)F)c23)c([C@H](Cc2cc(F)cc(F)c2)NC(=O)Cn2nc(C(F)(F)F)c3c2C(F)(F)[C@@H]2C[C@H]32)n1)S(C)(=O)=O"
*A* 100

*Q* Record request: pH 7 solubility value, item "C[C@@H](C(=O)OCN(c1nn(CC(F)(F)F)c2c(-c3ccc(C#CC(C)(C)S(C)(=O)=O)nc3[C@H](Cc3cc(F)cc(F)c3)NC(=O)Cn3nc(C(F)(F)F)c4c3C(F)(F)[C@@H]3C[C@H]43)ccc(Cl)c12)S(C)(=O)=O)N(C)C"
*A* 3

*Q* Record request: pH 7 solubility value, item "CC(C)(C#Cc1ccc(-c2ccc(Cl)c3c(N(C(=O)OCCCO)S(C)(=O)=O)nn(CC(F)(F)F)c23)c([C@H](Cc2cc(F)cc(F)c2)NC(=O)Cn2nc(C(F)(F)F)c3c2C(F)(F)[C@@H]2C[C@H]32)n1)S(C)(=O)=O"
*A* 2

*Q* Record request: pH 7 solubility value, item "CN(C(=O)N(c1nn(CC(F)(F)F)c2c(-c3ccc(C#CC(C)(C)S(C)(=O)=O)nc3[C@H](Cc3cc(F)cc(F)c3)NC(=O)Cn3nc(C(F)(F)F)c4c3C(F)(F)[C@@H]3C[C@H]43)ccc(Cl)c12)S(C)(=O)=O)[C@@H](CC(=O)O)C(=O)OCOP(=O)(O)O"
*A* 15

Where do the numbers come from? From patent US12404262B2.
